Target: BRD4 (BDI_K57-E168) (Homo sapiens, UniProt O60885)
Construct: BD1: amino acids K57-E168; made in house
Test: TR-FRET bromodomain binding assay, first bromodomain of BRD4
Settings: TR-FRET assay protocol G (compound 0.92 μM-15 pM); 100 nM probe
Procedure: Bromodomain Domain Binding Assay A time-resolved fluorescence resonance energy transfer (TR-FRET) assay was used to determine the affinities of compounds of the Examples listed in Table 1 for each bromodomain of BRD4. His-tagged first (BD1: amino acids K57-E168) and second (BD2: amino acids […]) bromodomains of BRD4 were expressed and purified. […] After a one-hour equilibration at room temperature, TR-FRET ratios were determined using an Envision multilabel plate reader (Ex 340, Em 495/520). […]
pKi: −log10 of the molar value.
assay.endpoint: pKi

{"molecule": "Cn1cc2c3c(c[nH]c3c1=O)C(CCC(=O)NCc1ccccc1)N(c1ccc(F)cc1F)c1ccc(CS(C)(=O)=O)cc1-2 (stereo not drawn) [Example 123]", "reported": 8.00}
{"molecule": "Cn1cc2c3c(c[nH]c3c1=O)CN(Cc1ccccc1OCc1ccccn1)c1ccc(CS(C)(=O)=O)cc1-2 [Example 264]", "reported": 8.16}
{"molecule": "Cn1cc2c3c(c[nH]c3c1=O)C(CCC(=O)NC1CCS(=O)(=O)C1)N(c1ccc(F)cc1F)c1ccc(CS(C)(=O)=O)cc1-2 (stereo not drawn) [Example 124]", "reported": 8.05}

----------
Tested on: breast cancer cell line MX-1
Test: MX-1 cell line proliferation assay
Assay type: cell-based
Conditions: MX-1 cells, 3-day proliferation assay, Cell Titer Glo; read-out: Cellular proliferation: EC50
pEC50: −log10 of the molar value.
assay.endpoint: pEC50

Below: 2 compounds and their reported pEC50.
{"compound": "CC(=O)OCCCCCCC1c2c[nH]c3c(=O)n(C)cc(c23)-c2cc(CS(C)(=O)=O)ccc2N1c1ccc(F)cc1F (stereo not drawn)", "assay.endpoint": "pEC50", "reported": 7.14}
{"compound": "Cn1cc2c3c(c[nH]c3c1=O)CN(C(=O)Cc1ccccc1)c1ccc(CS(C)(=O)=O)cc1-2", "assay.endpoint": "pEC50", "reported": 6.78}

P: COc1cc(OC)cc(C2c3c[nH]c4c(=O)n(C)cc(c34)-c3cc(CS(C)(=O)=O)ccc3N2c2ccc(F)cc2F)c1 (stereo not drawn)
Q: CCOC(=O)N1Cc2c[nH]c3c(=O)n(C)cc(c23)-c2cc(CS(C)(=O)=O)ccc21
Which entry shows the lesser value of pEC50 here, P or Q ? API: response body contains the label of the selected item. P

----------
System: breast cancer cell line MX-1
Assay: MX-1 cell line proliferation assay
Format: cell-based
Conditions: MX-1 cells, 3-day proliferation assay, Cell Titer Glo; read-out: Cellular proliferation: EC50
pEC50: −log10 of the molar value.
assay.endpoint: pEC50

{"smi": "CCS(=O)(=O)Nc1cnc2c(c1)-c1cn(C)c(=O)c3[nH]cc(c13)CN2c1ccc(F)cc1F", "assay.endpoint": "pEC50", "reported": 8.15}

a: CCCCN1Cc2c[nH]c3c(=O)n(C)cc(c23)-c2cc(F)cc(F)c21
b: Cn1cc2c3c(c(C#N)[nH]c3c1=O)CN(c1ccc(F)cc1F)c1ccc(CS(C)(=O)=O)cc1-2
Sorting by pEC50 in descending order, would a or b appear first? API: response body contains the label of the selected item. a
(a: 8.08, b: 7.88)

----------
System: breast cancer cell line MX-1
Assay: MX-1 cell line proliferation assay
Type: cell-based
Conditions: MX-1 cells, 3-day proliferation assay, Cell Titer Glo; read-out: Cellular proliferation: EC50
assay.endpoint: EC50 (nM)

{"compound": "Cn1cc2c3c(c[nH]c3c1=O)CN(CC1CCN(C(=O)OC(C)(C)C)CC1)c1ccc(CS(C)(=O)=O)cc1-2", "system.tested": "breast cancer cell line MX-1", "EC50 [nM]": 13.7}

a: COCC(C)N1Cc2c[nH]c3c(=O)n(C)cc(c23)-c2cc(CS(C)(=O)=O)ccc21 (centres unmarked)
b: COC(=O)CCCN1Cc2c[nH]c3c(=O)n(C)cc(c23)-c2cc(F)cc(F)c21
Sorting by EC50 in descending order, would a or b appear first? API: response body contains the label of the selected item. b
(b: 42.2 nM, a: 28.3 nM)
